experiment: AUC (0 to last) in Sprague-Dawley rat at 10 mg/kg, po; assay type: ADME, organism-based; parameters: dose 10 mg/kg, route po; conditions: in vivo
READOUT_NAME: AUC(0-t) (ng·h/mL)
Field format: number, assumed ng·h/mL, no unit text.

>  <SMILES_REPR>
COc1ccc2c(c1)c(CCN(C)C)cn2C(=O)c1ccccc1

>  <UNIT_OF_MEASURE>
ng·h/mL

>  <AUC(0-t)>
66.5

$$$$
>  <SMILES_REPR>
COc1ccc2c(c1)c(CCN(C)C)cn2C(=O)[C@@H](N)C(C)C.Cl.Cl

>  <UNIT_OF_MEASURE>
ng·h/mL

>  <AUC(0-t)>
155

$$$$
>  <SMILES_REPR>
C[C@H](N)C(=O)n1cc(CCN(C)C)c2ccccc21.Cl.Cl

>  <UNIT_OF_MEASURE>
ng·h/mL

>  <AUC(0-t)>
126

$$$$
>  <SMILES_REPR>
COc1ccc2c(c1)c(CCN(C)C)cn2C(=O)CCCC(C)=O

>  <UNIT_OF_MEASURE>
ng·h/mL

>  <AUC(0-t)>
362

$$$$

With those in mind, consider the next molecule.
Consider CN(C)CCc1cn(C(=O)CN(C)C(=O)[C@H](N)Cc2ccccc2)c2ccccc12.Cl.Cl . Its measured AUC(0-t) is 7.17

====

assay: Cmax in Sprague-Dawley rat at 10 mg/kg, po; assay type: ADME, organism-based; design: dose 10 mg/kg, route po; conditions: in vivo
Where Cmax equals or exceeds 10 ng/mL, the correct label is Criterion met; where it does not, the label is Criterion not met.

// inclusive: Cmax at least 10 ng/mL? input: CN(C)CCc1cn(C(=O)CN(C)C(=O)[C@H](N)Cc2ccccc2)c2ccccc12.Cl.Cl
Criterion not met

====

test: Tmax in Sprague-Dawley rat at 10 mg/kg, po; format: ADME, organism-based; settings: in vivo
READOUT_NAME: Tmax (h)
Field format: number, assumed h, no unit text.

>  <SMILES_REPR>
COc1ccc2c(c1)c(CCN(C)C)cn2C(=O)c1ccccc1

>  <Tmax, h>
1

$$$$
>  <SMILES_REPR>
CN(C)CCc1cn(C(=O)CN(C)C(=O)[C@H](N)Cc2ccccc2)c2ccccc12.Cl.Cl

>  <Tmax, h>
0.5

$$$$
>  <SMILES_REPR>
COc1ccc2c(c1)c(CCN(C)C)cn2C(=O)CCCC(C)=O

>  <Tmax, h>
1

$$$$
>  <SMILES_REPR>
COc1ccc2c(c1)c(CCN(C)C)cn2C(=O)[C@@H](N)C(C)C.Cl.Cl

>  <Tmax, h>
2

$$$$

With those in mind, consider the next molecule.
Consider C[C@H](N)C(=O)n1cc(CCN(C)C)c2ccccc21.Cl.Cl . Its measured Tmax is 0.5

====

assay: Half life in Sprague-Dawley rat at 10 mg/kg, po; assay type: ADME, organism-based; conditions: in vivo
READOUT_NAME: half-life (min)
Field format: number, assumed min, no unit text.

>  <SMILES_REPR>
COc1ccc2c(c1)c(CCN(C)C)cn2C(=O)[C@@H](N)C(C)C.Cl.Cl

>  <UNIT_OF_MEASURE>
min

>  <QUANTITATIVE_RESULT>
332

$$$$
>  <SMILES_REPR>
COc1ccc2c(c1)c(CCN(C)C)cn2C(=O)c1ccccc1

>  <UNIT_OF_MEASURE>
min

>  <QUANTITATIVE_RESULT>
618

$$$$
>  <SMILES_REPR>
COc1ccc2c(c1)c(CCN(C)C)cn2C(=O)CCCC(C)=O

>  <UNIT_OF_MEASURE>
min

>  <QUANTITATIVE_RESULT>
121

$$$$
>  <SMILES_REPR>
C[C@H](N)C(=O)n1cc(CCN(C)C)c2ccccc21.Cl.Cl

>  <UNIT_OF_MEASURE>
min

>  <QUANTITATIVE_RESULT>
245

$$$$

With those in mind, consider the next compound.
Consider CN(C)CCc1cn(C(=O)CN(C)C(=O)[C@H](N)Cc2ccccc2)c2ccccc12.Cl.Cl . Its measured half-life is 199

====

assay: Cmax in Sprague-Dawley rat at 10 mg/kg, po; type: ADME, organism-based; design: dose 10 mg/kg, route po; settings: in vivo
READOUT_NAME: Cmax
Note: state the figure and append the unit.

>  <SMILES_REPR>
COc1ccc2c(c1)c(CCN(C)C)cn2C(=O)c1ccccc1

>  <Cmax>
17.7 ng/mL

$$$$
>  <SMILES_REPR>
C[C@H](N)C(=O)n1cc(CCN(C)C)c2ccccc21.Cl.Cl

>  <Cmax>
20.2 ng/mL

$$$$
>  <SMILES_REPR>
COc1ccc2c(c1)c(CCN(C)C)cn2C(=O)CCCC(C)=O

>  <Cmax>
106 ng/mL

$$$$

Consider COc1ccc2c(c1)c(CCN(C)C)cn2C(=O)[C@@H](N)C(C)C.Cl.Cl . Its measured Cmax is 11.1 ng/mL
